Would you kindly list Octet signal for each of these binders?
- STUDY_SYSTEM: Biotinylated CD33 protein (UniProt P20138)
- Sequence (P20138 18-259 limits assumed): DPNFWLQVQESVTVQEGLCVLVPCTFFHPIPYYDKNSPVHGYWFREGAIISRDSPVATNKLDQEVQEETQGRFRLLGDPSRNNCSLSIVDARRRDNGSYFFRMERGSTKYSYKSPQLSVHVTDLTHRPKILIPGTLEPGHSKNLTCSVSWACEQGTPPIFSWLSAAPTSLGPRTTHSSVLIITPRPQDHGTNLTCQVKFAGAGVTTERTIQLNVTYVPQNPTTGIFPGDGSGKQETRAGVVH
- METHOD_SUMMARY: Octet competition on biotinylated CD33; competitor h195
Answers are plain numbers.

Worked cases, answers included:
sdCD33_6 (VHH, sdAb from a naive llama phage library; also called 416; sdAb416) VHH: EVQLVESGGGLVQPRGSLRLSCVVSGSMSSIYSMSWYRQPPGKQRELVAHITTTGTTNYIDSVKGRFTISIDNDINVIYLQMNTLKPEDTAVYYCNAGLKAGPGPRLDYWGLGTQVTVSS: 0.565
sdCD33_9 (VHH, sdAb from a naive llama phage library; also called 426; sdAb426) VHH: QVKLEESGGGLVRAGGSLRLSCAASGGTFSTYAMAWFRQAPGKEREFVAAITWGGGSTYYEDSVKGRFTISRDNAKNTGVLQMNNLDVDDTAVYYCYAFGRSRAGDANGDYWGQGTQVTVSS: 0.743

Give Octet signal for each of the items listed below.
1. sdCD33_3 (VHH) VHH: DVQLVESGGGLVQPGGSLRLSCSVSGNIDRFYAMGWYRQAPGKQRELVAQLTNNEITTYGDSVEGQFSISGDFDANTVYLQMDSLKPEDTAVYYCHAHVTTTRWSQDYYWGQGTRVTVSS
2. sdCD33_10 (VHH) VHH: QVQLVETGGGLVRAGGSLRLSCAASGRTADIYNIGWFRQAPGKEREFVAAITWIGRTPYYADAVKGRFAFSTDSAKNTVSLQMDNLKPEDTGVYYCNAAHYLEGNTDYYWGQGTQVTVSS

Response line:
1: 0.295; 2: 1.37

Can you give me Octet signal for all of these, one by one?
1. sdCD33_2 (VHH) VHH: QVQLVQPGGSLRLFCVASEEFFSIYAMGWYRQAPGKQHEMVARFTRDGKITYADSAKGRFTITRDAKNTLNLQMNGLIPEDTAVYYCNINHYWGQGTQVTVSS
2. sdCD33_11 (VHH, sdAb from a naive llama phage library; also called 430; sdAb430) VHH: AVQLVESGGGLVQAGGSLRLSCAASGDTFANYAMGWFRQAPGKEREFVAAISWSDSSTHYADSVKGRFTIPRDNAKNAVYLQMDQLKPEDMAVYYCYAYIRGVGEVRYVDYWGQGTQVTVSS

Response line:
[0.799, 0.136]
